Hello, the source for this data is ChEMBL document CHEMBL2331222, in case you need it.

// reported inhibition for each item listed
target: UniProt P40763; assay: Inhibition of STAT3 in IL-6-stimulated human HepG2 cells at 10 uM treated for 1 hr prior to IL-6 challenge measured after 5.5 hrs by luciferase reporter gene assay; assay type: cell-based
Sequence (P40763 whole entry): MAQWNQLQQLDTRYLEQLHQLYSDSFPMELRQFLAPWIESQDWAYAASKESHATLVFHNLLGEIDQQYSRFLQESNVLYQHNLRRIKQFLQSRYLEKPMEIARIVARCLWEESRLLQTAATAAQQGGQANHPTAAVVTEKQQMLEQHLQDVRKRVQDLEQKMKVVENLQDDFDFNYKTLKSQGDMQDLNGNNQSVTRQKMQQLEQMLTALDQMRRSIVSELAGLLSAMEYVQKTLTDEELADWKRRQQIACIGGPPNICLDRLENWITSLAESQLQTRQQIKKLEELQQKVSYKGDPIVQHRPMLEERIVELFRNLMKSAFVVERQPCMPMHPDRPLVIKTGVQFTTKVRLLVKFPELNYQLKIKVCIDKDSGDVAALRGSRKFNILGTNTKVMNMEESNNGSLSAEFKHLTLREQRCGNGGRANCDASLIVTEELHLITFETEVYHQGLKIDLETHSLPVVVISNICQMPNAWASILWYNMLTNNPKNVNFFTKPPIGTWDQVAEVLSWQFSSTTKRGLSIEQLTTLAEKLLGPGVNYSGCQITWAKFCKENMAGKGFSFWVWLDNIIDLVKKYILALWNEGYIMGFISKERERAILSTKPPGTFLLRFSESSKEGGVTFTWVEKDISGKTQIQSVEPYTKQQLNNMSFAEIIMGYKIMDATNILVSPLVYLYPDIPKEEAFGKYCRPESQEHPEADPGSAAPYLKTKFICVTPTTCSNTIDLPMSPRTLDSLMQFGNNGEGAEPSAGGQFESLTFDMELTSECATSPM

# lookup: inhibition of `CCCCOc1ccc(C(=O)Nc2ccc3nc(SCC(=O)Nc4c(CC)cccc4CC)sc3c2)cc1`
49.5%

Return reported inhibition; argument: `CCCCCOc1ccc(C(=O)Nc2ccc3nc(SCC(=O)Nc4c(CC)cccc4CC)sc3c2)cc1`
18.9%

Tell me the measured inhibition of `CCCCOc1ccc(C(=O)Nc2ccc3nc(SCC(=O)N[C@@H](C)c4ccccc4)sc3c2)cc1` , please.
30.9%

Entry under review: `CCc1cccc(CC)c1NC(=O)CSc1nc2ccc(NC(=O)c3ccc(OCc4ccccc4)cc3)cc2s1` . Reported inhibition?
22.6%

Consider the compound `COc1ccccc1C(=O)Nc1ccc2nc(SCC(=O)Nc3c(C)cccc3C)sc2c1` and give its measured inhibition.
21.5%
